System: Oxytocin receptor (Homo sapiens, UniProt P30559) | Read-out: IC50 | Origin: multiple publications
Sequence (P30559 whole entry): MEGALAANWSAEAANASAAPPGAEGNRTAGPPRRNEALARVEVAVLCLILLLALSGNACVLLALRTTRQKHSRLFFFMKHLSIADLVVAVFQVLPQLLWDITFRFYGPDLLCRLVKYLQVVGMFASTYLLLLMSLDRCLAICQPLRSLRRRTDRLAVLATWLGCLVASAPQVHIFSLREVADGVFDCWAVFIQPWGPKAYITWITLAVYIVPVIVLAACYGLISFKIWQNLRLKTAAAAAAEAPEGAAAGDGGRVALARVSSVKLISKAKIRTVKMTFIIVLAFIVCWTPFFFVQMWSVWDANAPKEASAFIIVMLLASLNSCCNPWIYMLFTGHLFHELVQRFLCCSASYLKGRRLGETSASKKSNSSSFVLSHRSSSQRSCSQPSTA
ASSAY_ENDPOINT: IC50 (nM)

Below, each entry is followed by its recorded IC50 result.
[[record]]
compound = "COc1ccccc1-c1ccc(C(=O)N2Cc3ccc(C(=O)N(C)Cc4cccnc4)n3Cc3ccccc32)cc1C"
assayed_target = "Oxytocin receptor (Homo sapiens, UniProt P30559)"
meas_value = 2.23

[[record]]
compound = "O=C(c1ccc(-c2cccc3ccccc23)cc1Cl)N1Cc2cccn2Cc2ccccc21"
assayed_target = "Oxytocin receptor (Homo sapiens, UniProt P30559)"
meas_value = 8

[[record]]
compound = "CN(C)NC(=O)c1ccc2n1Cc1ccccc1N(C(=O)c1ccc(C3CCCCC3)cc1)C2"
assayed_target = "Oxytocin receptor (Homo sapiens, UniProt P30559)"
meas_value = 130


a = Cc1cc(C(=O)N2Cc3ccc(C(=O)N(C)C[C@@H]4OC(=O)O[C@H]4[C@H](O)[C@H]4COC(=O)O4)n3Cc3ccccc32)ccc1-c1ccccc1C(F)(F)F
b = CC(=NNC(=O)c1ccc2n1Cc1ccccc1N(C(=O)c1ccc(C3CCCCC3)cc1)C2)N(C)C
Exercise: I'm curious whether a or b has the smaller IC50 number. Which is it? Field: selected label. Fill in the label of the entry you choose.
Key: a
(a: 4.27 nM, b: 35.4 nM)
